system: MOLT-4; assay: NCI tumour cell line growth inhibition, 48 h
Active and inactive are the calls of the source. Cut-off read from the data, not from the text of the source: active = GI50 up to about 1.1 µM and inactive = higher.
Possible outcomes: 1 = active, -1 = inactive

Molecule: COc1cc2oc3ccccc3c(=O)c2cc1CSc1ccccc1N
Label: -1

Molecule: CC(=O)NNC1=NN(C(C)=O)C2(S1)C(=O)Nc1ccc(C)cc12 (stereo unspecified)
Label: -1

Molecule: Cc1cccc(-c2cc(O)c3cccnc3n2)c1
Label: 1

Molecule: S=C1/C(=N/c2ccccc2)N(c2ccccc2)/C(=N\c2cccc[n+]2Cc2ccccc2)N1c1ccccc1
Label: -1

Molecule: O=[N+]([O-])c1cccc(-c2ncc3c(n2)-c2ccccc2C3)c1
Label: -1

Molecule: CNc1nc2c(C)ccc3nc(N(C)C)[nH]c3c-2n1
Label: -1
